Recorded measurements of pIC50, one per entry
measured on: IDH1-R132C recombinant protein (Homo sapiens (Human), UniProt O75874, R132C)
Sequence (O75874 whole entry R132C): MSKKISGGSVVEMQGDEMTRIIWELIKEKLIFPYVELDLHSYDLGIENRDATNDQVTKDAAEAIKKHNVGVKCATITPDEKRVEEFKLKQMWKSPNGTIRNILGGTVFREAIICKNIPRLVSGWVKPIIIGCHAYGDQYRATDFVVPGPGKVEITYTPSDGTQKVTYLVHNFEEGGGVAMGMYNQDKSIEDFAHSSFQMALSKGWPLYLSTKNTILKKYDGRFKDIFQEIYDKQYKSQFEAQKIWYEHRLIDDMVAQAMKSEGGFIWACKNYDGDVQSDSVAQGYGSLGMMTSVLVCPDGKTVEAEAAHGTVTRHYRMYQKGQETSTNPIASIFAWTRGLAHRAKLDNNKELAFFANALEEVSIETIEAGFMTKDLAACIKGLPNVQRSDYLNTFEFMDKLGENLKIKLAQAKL
test description: IDH1-R132C enzymatic assay (NADPH consumption, diaphorase/resazurin readout)
Format: biochemical
measurement setup: inhibition of NADPH consumption, 10 nM IDH1-R132C; read-out: Enzyme IDH1 R132C IC50
pIC50: −log10 of the molar value.

compound=C[C@@H](Nc1ncc2c(n1)N(C)C(=O)OC2)c1cc2cc(Cl)c(F)cc2[nH]c1=O reported_property=pIC50 obs_value="< 5.00"
compound=CC(C)Cn1c(=O)oc2cnc(N[C@@H](C)c3cc4cc(Cl)ccc4[nH]c3=O)nc21 reported_property=pIC50 obs_value="> 7.00"
compound=C[C@H](Nc1ncc2oc(=O)n(C)c2n1)c1cc2cc(Cl)ccc2[nH]c1=O reported_property=pIC50 obs_value="6.00 to 7.00"

-- ask Form field: reported pIC50 of C[C@H](Nc1ncc2c(n1)NC(=O)OC2)c1cc2cc(Cl)ccc2[nH]c1=O
-- reply 6.00 to 7.00

-- ask Moving on to the next compound: CC(=O)N1CCOc2c1ccnc2N[C@@H](C)c1cc2cc(Cl)ccc2[nH]c1=O
-- reply < 5.00

-- ask Moving on to the next compound: C[C@H](Nc1ncc2c(n1)N(C)C(=O)C2)c1cc2cc(Cl)ccc2[nH]c1=O
-- reply 6.00 to 7.00

-- ask Moving on to the next compound: COc1cc2[nH]c(=O)c(C(C)Nc3ncc4c(n3)N(C)C(=O)OC4)cc2cc1Cl (racemic)
-- reply > 7.00

-- ask Moving on to the next compound: C[C@H](Nc1ncc2c(n1)N(C)C(=O)OC2)c1cc2cc(Cl)c(OCc3ccccn3)cc2[nH]c1=O
-- reply > 7.00

-- ask Moving on to the next compound: C[C@H](Nc1ncc2c(n1)N(C)C(=O)OC2)c1cc2cc(Cl)ccc2[nH]c1=O
-- reply > 7.00

-- ask Moving on to the next compound: C[C@H](Nc1ncc2oc(=O)[nH]c2n1)c1cc2cc(Cl)ccc2[nH]c1=O
-- reply 6.00 to 7.00

-- ask Moving on to the next compound: COc1cc2[nH]c(=O)c([C@H](C)Nc3ncc4c(n3)N(C)C(=O)OC4)cc2cc1Cl
-- reply > 7.00

-- ask Moving on to the next compound: COc1cc2[nH]c(=O)c([C@@H](C)Nc3ncc4c(n3)N(C)C(=O)OC4)cc2cc1Cl
-- reply 5.00 to 6.00

-- ask Moving on to the next compound: O=c1ccc2cc(NCc3cc4cc(Cl)ccc4[nH]c3=O)ccc2o1
-- reply < 5.00
